- System: SR leukemia
- method-summary: NCI-60 one-dose screen, 48 h (100 = growth as untreated, 0 = no growth, -100 = all killed)
- run-parameters: 10 µM
The panel holds about 83,000 compounds, 20% with a hit somewhere; the sample as a whole holds those more often.
Assign Yes to entries whose growth meets or exceeds 10%; assign No to the rest.

[
  {
    "compound": "COc1cc2c3c(n(CCCNCCO)c(=O)c2cc1OC)-c1nc2c(cc1C3=O)OCO2",
    "target": "SR leukemia",
    "class-label": "No"
  },
  {
    "compound": "O/N=C(\\CSc1nnc(-c2c[nH]c3ccccc23)n1-c1ccccc1)c1ccc(Cl)cc1",
    "target": "SR leukemia",
    "class-label": "Yes"
  },
  {
    "compound": "Nc1nnc(-c2c[nH]c3ccc(F)cc23)c(-c2c[nH]c3ncccc23)n1",
    "target": "SR leukemia",
    "class-label": "Yes"
  }
]

Asked: # check: growth of `CN1CCN(Cc2ccc(C(=O)Nc3cccc(Nc4ccc5c(O)cccc5n4)c3)cc2C(F)(F)F)CC1` is greater than or equal to 10%
Given back: No

Asked: # check: growth of `CN1CCN(Cc2ccc(NC(=O)c3cncc(C#Cc4cnc5ccc(N[C@@H]6CCOC6)nn45)c3)cc2C(F)(F)F)CC1` is greater than or equal to 10%
Given back: No

Asked: # check: growth of `O=C1N/C(=N\c2nccs2)S/C1=C\c1cccs1` is greater than or equal to 10%
Given back: Yes

Asked: # check: growth of `Brc1ccc(N/N=C/c2c[nH]c3ccccc23)nc1` is greater than or equal to 10%
Given back: No

Asked: # check: growth of CN1C(=O)N(C)C2SC(N/N=C/c3ccccc3)=NC21 (stereo not given) is greater than or equal to 10%
Given back: Yes

Asked: # check: growth of `Cn1c(O)c(N=Nc2nc(-c3cc4ccccc4oc3=O)cs2)c2cc(Br)ccc21` is greater than or equal to 10%
Given back: Yes

Asked: # check: growth of `COc1ccc(-c2nc(-c3ccccc3)c(-c3ccccc3)n2-c2ccc(S(=O)(=O)Nc3ncccn3)cc2)cc1OC` is greater than or equal to 10%
Given back: Yes

---

- Tested on: NCI/ADR-RES ovarian
- method-summary: NCI-60 one-dose screen, 48 h (100 = growth as untreated, 0 = no growth, -100 = all killed)
- run-parameters: 10 µM
Compounds without any hit were thinned out: in the full panel of roughly 83,000, 20% have a hit.
quantity-name: growth (%)
Please state the figure in %; there is no need to write the unit.

[
  {
    "structure-smiles": "O=C(N/N=C/c1ccc(B(O)O)o1)c1[nH]c2ccc(Br)cc2c1-c1ccccc1",
    "quantity-name": "growth",
    "assay-result": -34.6
  },
  {
    "structure-smiles": "COc1cccc(-c2ccc(/C=N/NC(=O)c3[nH]c4ccc(Br)cc4c3-c3ccccc3)o2)c1",
    "quantity-name": "growth",
    "assay-result": -35
  },
  {
    "structure-smiles": "CC(C)c1ccc(C(=O)Nc2sc3c(c2C(N)=O)CCC(=O)C3=O)cc1",
    "quantity-name": "growth",
    "assay-result": 97.4
  }
]

Asked: Give growth for this entry on NCI/ADR-RES ovarian: `CN1CCN(c2ccc(Nc3nc(NCCCNC(=O)C4CCCCC4)c4sccc4n3)cc2)CC1`
Given back: 74.3

---

- Test system: SK-MEL-2 melanoma
- method-summary: NCI-60 one-dose screen, 48 h (100 = growth as untreated, 0 = no growth, -100 = all killed)
- run-parameters: 10 µM
Compounds without any hit were thinned out: in the full panel of roughly 83,000, 20% have a hit.
quantity-name: growth (%)
Please state the figure in %; there is no need to write the unit.

[
  {
    "molecule": "CN1C(=O)N(C)C2SC(N/N=C/c3ccccc3)=NC21 (stereo not given)",
    "growth, %": 73.3
  },
  {
    "molecule": "C/C(=C\\c1ccc(O)cc1O)c1ccc2ccc(O)cc2[o+]1",
    "growth, %": 91.1
  },
  {
    "molecule": "O=C(CNc1nc(-c2ccccc2)cs1)Nc1ccc(Br)cc1",
    "growth, %": -76.8
  },
  {
    "molecule": "N#Cc1ccc(-c2nn(-c3ccc(C(=O)O)cc3)cc2CNc2cc(Cl)cc(Cl)c2)cc1",
    "growth, %": 81.7
  }
]

Asked: Given the molecule `O=C1c2ccccc2C(=O)c2c1c(C(=O)c1ccc(Cl)cc1)n1c2ccc2c3ccccc3ccc21` , write its reported growth.
Given back: 107

Asked: Given the molecule `CN1CCc2c(sc3ncnc(N/N=C/c4ccc5ccccc5c4)c23)C1` , write its reported growth.
Given back: 103

Asked: Given the molecule `O=C1Nc2ccc(F)cc2/C1=C/c1cccc(OCc2ccccc2)c1` , write its reported growth.
Given back: -23.1

Asked: Given the molecule `C=C1CC[C@H](C(=C)C)[C@H]2C=C(C)C(=O)C3=C(C(=O)[C@@](C)(O)C3)[C@H]12` , write its reported growth.
Given back: -88.6

Asked: Given the molecule `O=C(CSc1ccc(-c2ccc(Cl)cc2)nn1)Nc1ccc(Cl)c(C(F)(F)F)c1` , write its reported growth.
Given back: 59.7

Asked: Given the molecule CN1C(=O)N(C)C2SC(N/N=C/c3cccs3)=NC21 (stereo not given) , write its reported growth.
Given back: 9.78

---

- Tested on: SK-MEL-5 melanoma
- method-summary: NCI-60 one-dose screen, 48 h (100 = growth as untreated, 0 = no growth, -100 = all killed)
- run-parameters: 10 µM
About 83,000 compounds went through this panel and 20% of them were active in at least one assay; those are over-represented in the sample as a whole.
// reported growth per item
Please state the figure in %; there is no need to write the unit.

[
  {
    "molecule": "O=C(c1ccc(Cl)cc1)C1[C@H](c2ccc(Br)cc2)[C@@H](c2ccccc2)NC12C(=O)Nc1ccccc12 (stereo partly drawn)",
    "growth (%)": -23.2
  },
  {
    "molecule": "COc1ccccc1[C@H]1C(C(=O)c2ccc(O)cc2)C2(N[C@@H]1c1ccccc1)C(=O)Nc1ccc(Br)cc12 (stereo partly drawn)",
    "growth (%)": 26.4
  },
  {
    "molecule": "C=C(C)[C@@H]1CC[C@]2(COP(=O)(OCC)OCC)CC[C@]3(C)[C@H](CC[C@@H]4[C@@](C)(CCCN)[C@H](C(=C)C)CC[C@]43C)[C@@H]12",
    "growth (%)": -47.6
  }
]

Asked: Give growth for this entry on SK-MEL-5 melanoma: `Cc1ccc2nc(-c3ccc(-c4nnc(SCC(=O)Nc5ccc(Br)cc5)o4)cc3)[nH]c2c1`
Given back: 85.5

---

- System: K-562 leukemia
- method-summary: NCI-60 one-dose screen, 48 h
- run-parameters: 10 µM
The panel holds about 83,000 compounds, 20% with a hit somewhere; the sample as a whole holds those more often. Activity calls are given as the source filed them. How the source made its calls: active means growth percent below 10; inactive means the rest.
Response enum: class 1 = active, class 0 = inactive

Below, 3 compounds whose answers are already recorded.
[
  {
    "compound": "Cc1cc(C)nc(/N=C(\\N)Nc2ccc(S(=O)(=O)Nc3nc(C)cc(C)n3)cc2)n1",
    "class-label": "class 0"
  },
  {
    "compound": "CCCn1c(=O)c2[nH]c(-c3ccc(OCc4nc5ccc(C)cc5[nH]4)cc3)nc2n(CCC)c1=O",
    "class-label": "class 0"
  },
  {
    "compound": "NS(=O)(=O)c1ccc(N=Nc2c(O)n(CC(=O)Nc3ccccc3Br)c3ccccc23)cc1",
    "class-label": "class 0"
  }
]

Asked: Please share the test call associated with `COc1ccc(Nc2nc(N)n(Cc3cccc(Br)c3)n2)cc1` .
Given back: class 1

Asked: Please share the test call associated with `O=C(Nc1cccc([N+](=O)[O-])c1)Nc1cccc([N+](=O)[O-])c1` .
Given back: class 0

---

// reported growth per item
- System: HOP-92 NSCLC
- method-summary: NCI-60 one-dose screen, 48 h (100 = growth as untreated, 0 = no growth, -100 = all killed)
- run-parameters: 10 µM
- Method: Growth inhibition of the HOP-92 human Non-Small Cell Lung tumor cell line is measured as a screen for anti-cancer activity. Cells are grown in 96 well plates and exposed to the test compound for 48 hours. Compounds are tested at a single concentration, which is 10^-5 M for most compounds. The reported endpoint is percent growth (GI% or GIPRCNT), where numbers from 0 - 100% represent growth inhibition, and numbers from -100% - 0 represent cell death. […]
About 83,000 compounds went through this panel and 20% of them were active in at least one assay; those are over-represented in the sample as a whole. Calls of active or inactive are those of the source. Rule for the calls: active = growth percent below 10; inactive = the rest.

[
  {
    "compound": "COc1cccc(/C=C2\\N=C(C)N(CCc3ccc(S(N)(=O)=O)cc3)C2=O)c1",
    "assay-result": "92.8% (inactive)"
  }
]

Asked: Give growth for this entry on HOP-92 NSCLC: `C=C(C)[C@@H]1CC[C@]2(COP(=O)(OCC)OCC)CC[C@]3(C)[C@H](CC[C@@H]4[C@@](C)(CCCN)[C@H](C(=C)C)CC[C@]43C)[C@@H]12`
Given back: 25.2% (inactive)

Asked: Give growth for this entry on HOP-92 NSCLC: `CC(=O)Nc1ccc(-c2cn(-c3cccc(C(=O)Nc4ccc(F)c(C(F)(F)F)c4)c3)nn2)cn1`
Given back: 65.6% (inactive)

Asked: Give growth for this entry on HOP-92 NSCLC: `COc1ccc(-c2nc(-c3ccccc3)c(-c3ccccc3)n2-c2ccc(S(=O)(=O)Nc3ncccn3)cc2)cc1OC`
Given back: 56.6% (inactive)

Asked: Give growth for this entry on HOP-92 NSCLC: `CC(=O)c1cc(C(=O)N2c3ccccc3Sc3ccccc32)n2ccc(C)cc12`
Given back: 38.1% (inactive)

Asked: Give growth for this entry on HOP-92 NSCLC: `CN1CCN(c2ccc(Nc3nc(NCCCNC(=O)c4ccc(Cl)cc4)c4sccc4n3)cc2)CC1`
Given back: 34.1% (inactive)

Asked: Give growth for this entry on HOP-92 NSCLC: `COc1cccc2nc(Nc3ccc(F)c(NC(=O)c4ccc(CN5CCN(C)CC5)c(C(F)(F)F)c4)c3)ccc12`
Given back: -22.8% (active)
